These data points were gathered from patent US20240343771A1.

# target_or_test_system: T1, human IL-12 (human, UniProt P29460 23-328; P29459 23-219)
# T1 construct: also called Interleukin-12
# T1 sequence 1: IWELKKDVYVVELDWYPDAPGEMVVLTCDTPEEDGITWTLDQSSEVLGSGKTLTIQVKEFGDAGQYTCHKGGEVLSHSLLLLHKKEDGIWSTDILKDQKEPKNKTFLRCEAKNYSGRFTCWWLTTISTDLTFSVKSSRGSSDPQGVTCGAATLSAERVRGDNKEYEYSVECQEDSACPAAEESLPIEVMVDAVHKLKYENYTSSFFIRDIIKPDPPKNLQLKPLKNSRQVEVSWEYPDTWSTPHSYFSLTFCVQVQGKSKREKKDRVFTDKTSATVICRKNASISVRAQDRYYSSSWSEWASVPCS
# T1 sequence 2: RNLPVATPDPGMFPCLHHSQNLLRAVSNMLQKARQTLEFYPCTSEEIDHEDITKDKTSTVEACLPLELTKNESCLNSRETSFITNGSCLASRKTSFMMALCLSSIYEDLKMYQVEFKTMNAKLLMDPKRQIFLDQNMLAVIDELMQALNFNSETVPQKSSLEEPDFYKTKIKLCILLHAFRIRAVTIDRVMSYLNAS
# method: SPR (Biacore T200), 37 C, pH 7.4; captured antibody, IL-12 analyte
Recorded Kd by entry

[
  {
    "binder": "Anti-IL-12 antibody Ab1 variant Y91M VH/L46Q, Y49A VL (antibody, name in Kabat numbering, V domains shown, Ab1 with VH/VL interface substitutions; Kabat numbering) VH: QVQLVQSGAEVKKPGSSVKVSCKASGGTFSDYYLHWVRQAPGQGLEWMGWIDPENGDTEYAPKFQGRVTITADESTSTAYMELSSLRSEDTAVYMCARNKELRYFDVWGQGTLVTVSS VL: DIVMTQSPLSLPVTPGEPASISCRASQSISINLHWYQQKPGQAPRQLIAFASQSISGVPSRFSGSGSGTDFTLTISSLQPEDFATYYCQQSNSFPLTFGQGTKVEIKR",
    "Kd / nM": 3.83
  },
  {
    "binder": "Anti-IL-12 antibody Ab1 variant F100aI VH/A43Q, L46Q, Y49A VL (antibody, name in Kabat numbering, V domains shown, Ab1 with VH/VL interface substitutions; Kabat numbering) VH: QVQLVQSGAEVKKPGSSVKVSCKASGGTFSDYYLHWVRQAPGQGLEWMGWIDPENGDTEYAPKFQGRVTITADESTSTAYMELSSLRSEDTAVYYCARNKELRYIDVWGQGTLVTVSS VL: DIVMTQSPLSLPVTPGEPASISCRASQSISINLHWYQQKPGQQPRQLIAFASQSISGVPSRFSGSGSGTDFTLTISSLQPEDFATYYCQQSNSFPLTFGQGTKVEIKR",
    "Kd / nM": 3.56
  },
  {
    "binder": "Anti-IL-12 antibody Ab1 variant V37S, Y91M VH/L46Q, Y49A VL (antibody, name in Kabat numbering, V domains shown, Ab1 with VH/VL interface substitutions; Kabat numbering) VH: QVQLVQSGAEVKKPGSSVKVSCKASGGTFSDYYLHWSRQAPGQGLEWMGWIDPENGDTEYAPKFQGRVTITADESTSTAYMELSSLRSEDTAVYMCARNKELRYFDVWGQGTLVTVSS VL: DIVMTQSPLSLPVTPGEPASISCRASQSISINLHWYQQKPGQAPRQLIAFASQSISGVPSRFSGSGSGTDFTLTISSLQPEDFATYYCQQSNSFPLTFGQGTKVEIKR",
    "Kd / nM": 3.44
  },
  {
    "binder": "Anti-IL-12 antibody Ab1 variant V37S VH/P44A, Y49A VL (antibody, name in Kabat numbering, V domains shown, Ab1 with VH/VL interface substitutions; Kabat numbering) VH: QVQLVQSGAEVKKPGSSVKVSCKASGGTFSDYYLHWSRQAPGQGLEWMGWIDPENGDTEYAPKFQGRVTITADESTSTAYMELSSLRSEDTAVYYCARNKELRYFDVWGQGTLVTVSS VL: DIVMTQSPLSLPVTPGEPASISCRASQSISINLHWYQQKPGQAARLLIAFASQSISGVPSRFSGSGSGTDFTLTISSLQPEDFATYYCQQSNSFPLTFGQGTKVEIKR",
    "Kd / nM": 2.96
  },
  {
    "binder": "Anti-IL-12 antibody Ab1 variant Y91M VH/A43Q, P44A, Y49A VL (antibody, name in Kabat numbering, V domains shown, Ab1 with VH/VL interface substitutions; Kabat numbering) VH: QVQLVQSGAEVKKPGSSVKVSCKASGGTFSDYYLHWVRQAPGQGLEWMGWIDPENGDTEYAPKFQGRVTITADESTSTAYMELSSLRSEDTAVYMCARNKELRYFDVWGQGTLVTVSS VL: DIVMTQSPLSLPVTPGEPASISCRASQSISINLHWYQQKPGQQARLLIAFASQSISGVPSRFSGSGSGTDFTLTISSLQPEDFATYYCQQSNSFPLTFGQGTKVEIKR",
    "Kd / nM": 1.69
  }
]
